assayed.target: human liver glycogen phosphorylase a (HLGPa) (Homo sapiens)
Construct: creating a full-length cDNA fused at the 5′ end to codons for methionine-glycine-alanine-histidine; 6xHis tag (leader Met-Gly-Ala-His6-Gly-Gly) (N); made in house; host or cells: E. coli (bacterial expression plasmid pTXK1007LTev)
Sequence (P06737 2-847 limits assumed): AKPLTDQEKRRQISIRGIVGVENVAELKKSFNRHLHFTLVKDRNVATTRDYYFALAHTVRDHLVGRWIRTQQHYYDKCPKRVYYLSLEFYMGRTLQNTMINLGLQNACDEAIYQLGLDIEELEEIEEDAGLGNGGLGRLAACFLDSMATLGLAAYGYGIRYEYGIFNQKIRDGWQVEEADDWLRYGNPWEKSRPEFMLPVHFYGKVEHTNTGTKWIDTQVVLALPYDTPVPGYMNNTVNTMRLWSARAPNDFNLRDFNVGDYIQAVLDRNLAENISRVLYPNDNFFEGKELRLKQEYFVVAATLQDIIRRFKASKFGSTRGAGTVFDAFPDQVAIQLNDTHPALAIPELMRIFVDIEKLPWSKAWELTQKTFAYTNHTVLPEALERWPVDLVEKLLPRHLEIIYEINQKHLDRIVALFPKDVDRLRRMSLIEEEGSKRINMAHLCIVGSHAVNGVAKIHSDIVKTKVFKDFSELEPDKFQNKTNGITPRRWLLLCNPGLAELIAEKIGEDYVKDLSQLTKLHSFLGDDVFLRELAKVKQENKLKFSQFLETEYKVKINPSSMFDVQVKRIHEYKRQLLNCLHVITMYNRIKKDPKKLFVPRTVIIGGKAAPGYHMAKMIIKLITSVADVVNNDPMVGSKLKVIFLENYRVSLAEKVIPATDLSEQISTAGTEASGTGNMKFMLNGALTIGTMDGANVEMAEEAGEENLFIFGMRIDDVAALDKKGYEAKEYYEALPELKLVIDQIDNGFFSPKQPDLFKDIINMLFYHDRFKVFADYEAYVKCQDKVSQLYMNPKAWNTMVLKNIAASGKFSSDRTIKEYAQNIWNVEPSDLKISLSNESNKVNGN
assay.details: Human liver glycogen phosphorylase a enzymatic activity assay (coupled, fluorescent resorufin readout, with and without 10 mM glucose)
Format: biochemical
condition.summary: human liver glycogen phosphorylase a; table does not say whether with or without 10 mM glucose

# compound, assayed.target, IC50, µM
rows = [
    ("Cc1cc(C(=O)O)c(NC(=O)Nc2c(Cl)cccc2Cl)s1 [Example 388]", "human liver glycogen phosphorylase a (HLGPa) (Homo sapiens)", 19.7),
    ("Cc1cc(C)c(NC(=O)Nc2cc(-c3cccc(F)c3)ccc2C(=O)N[C@H](C(=O)O)[C@@H](C)OC(C)(C)C)c(C)c1 [Example 233]", "human liver glycogen phosphorylase a (HLGPa) (Homo sapiens)", 0.023),
    ("O=C(Nc1ccc2c(c1)CCO2)Nc1cc2ccccc2cc1C(=O)N[C@H](C(=O)O)C1CCCCC1 [Example 248]", "human liver glycogen phosphorylase a (HLGPa) (Homo sapiens)", 15.1),
    ("O=C(Nc1cc2ccccc2cc1C(=O)NC1(C(=O)O)CCCCCC1)Nc1c(Cl)cc(Cl)cc1Cl [Example 301]", "human liver glycogen phosphorylase a (HLGPa) (Homo sapiens)", 0.35),
    ("O=C(Nc1cc2ccccc2cc1C(=O)NC1(C(=O)O)CCCC1)Nc1c(Cl)cc(Cl)cc1Cl [Example 279]", "human liver glycogen phosphorylase a (HLGPa) (Homo sapiens)", 3),
    ("Cc1cccc(C)c1NC(=O)Nc1cc2ccccc2cc1C(=O)N(CC(=O)O)CC(=O)O [Example 246]", "human liver glycogen phosphorylase a (HLGPa) (Homo sapiens)", 2.12),
    ("CC(C)c1cc(C(=O)O)c(NC(=O)Nc2c(Cl)cccc2Cl)s1 [Example 394]", "human liver glycogen phosphorylase a (HLGPa) (Homo sapiens)", 19.3),
    ("Cc1cc(C)c(NC(=O)Nc2cc3ccccc3cc2C(=O)NC2(C(=O)O)CCS(=O)(=O)CC2)c(C)c1 [Example 285]", "human liver glycogen phosphorylase a (HLGPa) (Homo sapiens)", 3.31),
]

The values you see were collected from patent US20070249670A1.
